Each entry below carries its reported melting point.
Counter-ions that a name gives are not always drawn.
Readout label: melting point

| Compound | Readout label | Reading |
| --- | --- | --- |
| CS(=O)(=O)NCc1sc(Nc2cccc(C(F)(F)F)c2)nc1-c1cccnc1 [Compound 109] | melting point | 213.6 to 219.8 °C |
| Cc1cc(Nc2nc(-c3ccc(Cl)nc3)cs2)ccc1F [Compound 2] | melting point | 175 °C |
| CNC(=O)Cc1sc(Nc2cc(Cl)ccc2Cl)nc1-c1ccncc1 [Compound 163] | melting point | 237.2 to 244 °C |
| NC(=O)Cc1sc(Nc2cc(Cl)ccc2Cl)nc1-c1ccncc1 [Compound 113] | melting point | 249.6 to 257.1 °C |
| O=C(NCc1sc(Nc2cccc(C(F)(F)F)c2)nc1-c1cccnc1)c1ccccc1 [Compound 164] | melting point | 215.5 to 218.9 °C |
| COc1ccc(Nc2nc(-c3ccncc3)c(CO)s2)cc1 [Compound 122] | melting point | 126.2 to 126.8 °C |
| COCc1sc(Nc2cc(Cl)ccc2Cl)nc1-c1ccncc1 [Compound 136] | melting point | 205.3 to 205.8 °C |
| Fc1ccc(Nc2nc(-c3cnc4ccccn34)cs2)cc1C(F)(F)F (as salt: HCl) [Compound 9] | melting point | 248 °C |
| NC(=O)Cc1sc(Nc2cccc(C(F)(F)F)c2)nc1-c1ccccc1 [Compound 1] | melting point | 186 to 187 °C |
| OCc1sc(Nc2cc(Cl)ccc2Cl)nc1-c1ccccc1 [int. 23] | melting point | 172.8 to 175 °C |
| CCOC(=O)Cc1sc(Nc2cc(Cl)ccc2Cl)nc1-c1ccncc1 [int. 30] | melting point | 156.8 to 163.5 °C |
